Target: TEC (human) (UniProt P42680)
Sequence (P42680 whole entry, looked up): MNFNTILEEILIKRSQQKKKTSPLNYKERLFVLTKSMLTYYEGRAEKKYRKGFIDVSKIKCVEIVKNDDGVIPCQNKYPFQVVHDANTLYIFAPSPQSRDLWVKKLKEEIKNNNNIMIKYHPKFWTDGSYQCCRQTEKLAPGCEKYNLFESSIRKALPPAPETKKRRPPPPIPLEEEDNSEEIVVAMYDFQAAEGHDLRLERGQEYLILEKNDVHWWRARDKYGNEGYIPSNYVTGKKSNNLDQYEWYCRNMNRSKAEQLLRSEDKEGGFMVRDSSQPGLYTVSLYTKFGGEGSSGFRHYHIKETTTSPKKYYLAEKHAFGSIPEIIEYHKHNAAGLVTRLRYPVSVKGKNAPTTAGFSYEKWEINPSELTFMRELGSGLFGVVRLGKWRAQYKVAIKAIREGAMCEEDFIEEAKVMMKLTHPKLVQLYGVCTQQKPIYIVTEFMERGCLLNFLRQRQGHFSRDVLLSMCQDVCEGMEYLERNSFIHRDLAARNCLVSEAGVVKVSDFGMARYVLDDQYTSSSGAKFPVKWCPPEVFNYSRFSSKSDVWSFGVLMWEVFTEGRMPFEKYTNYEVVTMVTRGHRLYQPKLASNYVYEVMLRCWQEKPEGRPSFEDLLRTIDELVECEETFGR
Experiment: radiometric filter-binding kinase assay, Kinase HotSpot
Conditions: compound 0.5 µM; ATP 10 µM
Quantity: residual activity (%)
# unit: % | format: bare number

Data request: So what does the record say about residual activity for COc1ccc2c(c[n+](C)c3c4cc5c(cc4ccc23)OCO5)c1OC ?
Data returned: 116

Data request: So what does the record say about residual activity for CC#CC(=O)Nc1cc2c(Nc3ccc(F)c(Cl)c3)ncnc2cn1 ?
Data returned: 52.1

Data request: So what does the record say about residual activity for N#C/C(=C(/N)Sc1ccc(N)cc1)c1ccccc1C(F)(F)F ?
Data returned: 109

Data request: So what does the record say about residual activity for CC[n+]1c(/C=C/N(C)c2ccccc2)n(-c2ccccc2)c2ccc(-c3nc4ccccc4s3)cc21 ?
Data returned: 161

Data request: So what does the record say about residual activity for Cc1[nH]c(/C=C2\C(=O)Nc3ccc(S(=O)(=O)N(C)c4cccc(Cl)c4)cc32)c(C)c1C(=O)N1CCN(C)CC1 ?
Data returned: 86.7

The measurements presented in this section are drawn from the kinase profiling compilation of Christmann-Franck et al. (2016).
